Below is a list of entries, each paired with its recorded protein stability index value.
MEASUREMENT DESCRIPTION: protein stability index of a GFP-peptide fusion (yeast GPS) (PSI 1-4); higher = more stable; sorted into four equal gates, so the index is relative within each strain
CONDITION SET: doa10∆

Known results for sequences:
KELTRIPGEEVEETEVP [MED4] = 3.21
TFGIRRNEKIAVHVTVR [RPL11A] = 2.17
ISSGLLYLQDSNDKFVH [SRB8] = 1.94
VRPFGVSTLIAGFDPRD [PRE6] = 1.5
MQKHGYIGEFEYIDDHR [RPS22A] = 3.16

Entry NSKMPTRFPPAVFYTPK [PRP8] ; protein stability index = 2.76

Entry DLQYLGEFSGKNFSPTK [RRP6] ; protein stability index = 3.46

Entry DGSAIEDDDIRSRMLPT [SNF5] ; protein stability index = 3.19
